# testedSystem: human CDK4 and genetically truncated (1-264) cyclin D3 (Homo sapiens)
# Sequence (P11802 whole entry, the tested form may be a part): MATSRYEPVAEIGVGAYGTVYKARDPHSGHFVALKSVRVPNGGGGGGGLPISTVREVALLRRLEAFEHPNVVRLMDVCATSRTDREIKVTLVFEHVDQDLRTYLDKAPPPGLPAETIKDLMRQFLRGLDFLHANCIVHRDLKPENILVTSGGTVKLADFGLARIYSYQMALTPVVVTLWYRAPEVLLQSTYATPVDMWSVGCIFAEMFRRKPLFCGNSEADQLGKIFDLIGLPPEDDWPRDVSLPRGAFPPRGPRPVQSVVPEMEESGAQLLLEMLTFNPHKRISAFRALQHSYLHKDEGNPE
# Sequence (P30281 1-264 partner): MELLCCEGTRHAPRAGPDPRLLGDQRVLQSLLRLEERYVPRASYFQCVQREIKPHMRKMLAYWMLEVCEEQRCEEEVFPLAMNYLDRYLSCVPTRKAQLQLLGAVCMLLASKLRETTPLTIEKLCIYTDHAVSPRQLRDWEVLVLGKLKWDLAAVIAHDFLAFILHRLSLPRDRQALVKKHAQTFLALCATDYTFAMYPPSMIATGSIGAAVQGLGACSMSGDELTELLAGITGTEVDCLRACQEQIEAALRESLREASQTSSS
# protocol: Inhibition of CDK4/Cyclin D Retinoblastoma Kinase Activity
# Format: biochemical
# experimentalContext: 0.03 μM compound; Table 4
# Experimental: Cyclin-dependent kinase activity was measured by quantifying the enzyme-catalyzed, time-dependent incorporation of radioactive phosphate from [^32P]ATP or [^33P]ATP into a protein substrate. […] The phosphorylated substrate was then captured on a nitrocellulose or phosphocellulose membrane using a 96-well filtration manifold, and unincorporated radioactivity was removed by repeated washing with 0.85% phosphoric acid. Radioactivity was quantified by exposing the dried membranes to a phosphorimager. […]
# maps each entry to its CDK4 % Inhibition at 0.03 μM
Provide only the numeric value, understood in %.

Known CDK4 % Inhibition at 0.03 μM results, listed for orientation:
                                   molecule                     parameter  obsvalue
0  CCOC(=O)CC(=O)N1CCC(Nc2nc(N)c(C(=O)c3c(F)cccc3F)s2)CC1 [Example Q47]  CDK4 % Inhibition at 0.03 μM         9
1  Nc1nc(NC2CCN(C(=S)Oc3ccccc3)CC2)sc1C(=O)c1c(F)cccc1F [Example Q83]  CDK4 % Inhibition at 0.03 μM        55
2  Nc1nc(NC2CCN(C(=O)OCc3ccccc3)CC2)sc1C(=O)c1c(F)cccc1F [Example Q6]  CDK4 % Inhibition at 0.03 μM        24
3  COc1ccc(OC)c(CC(=O)N2CCC(Nc3nc(N)c(C(=O)c4c(F)cccc4F)s3)CC2)c1 [Example Q78]  CDK4 % Inhibition at 0.03 μM        46
4  CN(C)C(=O)N1CCC(Nc2nc(N)c(C(=O)c3c(F)cccc3F)s2)CC1 [Example Q2]  CDK4 % Inhibition at 0.03 μM        13

Query Nc1nc(NC2CCN(C(=O)c3cnc4ccccc4n3)CC2)sc1C(=O)c1c(F)cccc1F [Example Q67] yields CDK4 % Inhibition at 0.03 μM of 50
